Would you kindly list growth inhibition for each of these molecules?
Assay: NCI Yeast Anticancer Drug Screen. Data for the rad50 strain (AID 155);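 note: 0% = growth of vehicle-only cultures of the same strain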
Settings: S. cerevisiae rad50 strain growth inhibition; at 50.0 µM; stronger effect = higher value
This is part of a sample that, as a whole, favours compounds with a hit. Of some 79,000 tested, about 15% had one in any assay.
One number for each entry, in %.

[
  {
    "molecule": "COc1ccc(CSC(=S)Nc2cc(C)c(C)cc2[N+](=O)[O-])cc1",
    "numeric readout": 95.8
  },
  {
    "molecule": "O=C(CSc1nnc(Cc2ccccc2)o1)Nc1cccc(Cl)c1",
    "numeric readout": 77
  },
  {
    "molecule": "Fc1ccc(CSC(=S)Nc2ccc(F)cc2)cc1",
    "numeric readout": 69.5
  },
  {
    "molecule": "O=C1NN(C2=NNC3(C(=O)N2)c2ccccc2-c2ccccc23)C(c2ccccc2)=N/C1=C/c1ccc(Cl)cc1",
    "numeric readout": 32.4
  },
  {
    "molecule": "CC(=O)Oc1ccc(Cl)cc1Cc1cc(Cl)ccc1OC(C)=O",
    "numeric readout": 94.2
  }
]

Working through the 4 molecules below one at a time, give growth inhibition for each.
1. O=C1C2=C(C(=O)c3cnccc31)C1C=CC2CC1 (centres undefined)
2. Cc1cc2c(=O)[nH]c(N)nc2nc1C
3. c1cc2c(cc1CCCCCCCCCCc1ccc3c(c1)CCC3)CCC2
4. COc1cccc(C2c3cc4c(cc3OC(NNc3ccccc3)C2C)OCO4)c1O (centres undefined)

Reply |
1. 49.1
2. -9.45
3. 2.75
4. 94

###

Would you kindly list growth inhibition for each of these compounds?
Test: NCI Yeast Anticancer Drug Screen. Data for the rad50 strain (AID 155);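 note: 0% = growth of vehicle-only cultures of the same strain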
Conditions: S. cerevisiae rad50 strain growth inhibition; at 5.0 µM (retest, dose inferred, filed as 0.5); stronger effect = higher value
Compounds without any hit were thinned out: in the full panel of roughly 79,000, 15% have a hit.
Answers are plain numbers, in %.

Worked cases, growth inhibition given:
[
  {
    "compound": "O=C1c2ccccc2-c2cc(S)c([N+](=O)[O-])cc21",
    "quantity": "growth inhibition",
    "numeric readout": -10
  },
  {
    "compound": "CCCCc1cc2c(cc1O)CCC1C2CC[C@@]2(C)C1CC[C@@H]2O (stereo partly drawn)",
    "quantity": "growth inhibition",
    "numeric readout": 5
  }
]

Now turn to the next compound.
Ask | Can you look up the measured growth inhibition of COc1ccc(/C=C2\CCCc3ccccc3C2=O)cc1 for me?
Reply | -3

###

Assay: NCI Yeast Anticancer Drug Screen. Data for the sgs1 mgt1 strain (AID 161);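 note: 0% = growth of cultures given vehicle only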
Details: S. cerevisiae sgs1 mgt1 strain, at 50.0 µM
Compounds without any hit were thinned out: in the full panel of roughly 79,000, 15% have a hit. Active and inactive are the calls of the source. Cut-off read from the data, not from the text of the source: active = growth inhibition above about 70%; inactive = the rest.
Answer with one of the outcomes given here: active, inactive

Below are worked cases with known answers.
[
  {
    "compound": "CCCCCCCCCCCCNC(=O)C[n+]1cccc(C(=O)N(C)C)c1",
    "discrete label": "active"
  },
  {
    "compound": "CCC(C)COC(=O)c1ccc([N+](=O)[O-])cc1 (stereo not given)",
    "discrete label": "active"
  },
  {
    "compound": "CCOC(=O)C[P+](c1ccc(C)cc1)(c1ccc(C)cc1)c1ccc(C)cc1",
    "discrete label": "active"
  },
  {
    "compound": "COc1ccc2c(C)c(N=C=S)c(=O)oc2c1",
    "discrete label": "inactive"
  },
  {
    "compound": "CS(=O)(=O)c1cc(=O)c2ccccc2s1",
    "discrete label": "active"
  },
  {
    "compound": "CCCCCCCCCCCC[N+](C)(C)C (tested in a mixture with another compound)",
    "discrete label": "inactive"
  }
]

Ask | Which result was noted for this compound in the test: CC(O)c1c2c(cc3c1CC1(C3)Cc3cc4c(c(C(C)O)c3C1)CCC4)CCC2 (stereo not given)
Reply | active

Ask | Another: COc1ccc(CSC(=S)Nc2cc(C)c(C)cc2[N+](=O)[O-])cc1
Reply | active

Ask | Another: CC(C)(Cl)C(Cl)CC/C(CBr)=C(\Cl)CCl (stereo not given)
Reply | active

Ask | Another: O=C(Sc1c(-c2ccccc2)c(=O)n(-c2ccccc2)c(=S)n1-c1ccccc1)c1cccs1
Reply | active

Ask | Another: S=c1c2cn[nH]c2nc2scc(-c3ccc(Cl)cc3)n12
Reply | inactive

Ask | Another: CC(C)SC(=S)S(=O)(=O)c1ccc(Cl)cc1
Reply | active

Ask | Another: O=C1OC(c2ccc(O)cc2)=C(c2ccccc2)C1c1ccccc1 (stereo not given)
Reply | active

Ask | Another: CC(=O)OC1CC2Cc3ccccc3C3(O)COC213 (stereo not given)
Reply | active

Ask | Another: O=C(Nc1ccccc1Cl)c1cccnc1
Reply | inactive

Ask | Another: N#CC1C2CCC3(CC2CCN1C(=O)c1ccccc1)OCCO3 (stereo not given)
Reply | inactive

Ask | Another: O=C1/C(=C\c2ccccc2)CCC/C1=C\O
Reply | inactive

Ask | Another: CCCCCCCC(CC(=O)O)OC(=O)CC(CCCCCCC)OC1OC(C)C(O)C(O)C1OC1OC(C)C(O)C(O)C1O (stereo not given)
Reply | active

Ask | Another: O=C1c2ccccc2C(=O)c2c1ccc(O)c2O
Reply | active

Ask | Another: Cc1[nH]c(=O)[nH]c(=S)c1C(=O)NC1C2CCCCC2NC2CCCCC21 (stereo not given)
Reply | active

Ask | Another: CCCCCCCCCCCCNCCNCCN
Reply | active

Ask | Another: CC(=O)Oc1c([N+](=O)[O-])cc(-c2ccccc2)cc1[N+](=O)[O-]
Reply | inactive
